Quick reference: surface tension liquid-gas of the listed items.
Settings: 303.15 K, Drop volume

{"Compound": "CC1CCCCC1 [methylcyclohexane]", "surface tension liquid-gas, mN/m": 22.55}
{"Compound": "CC(C)CC(C)(C)C [2,2,4-trimethylpentane]", "surface tension liquid-gas, mN/m": 17.99}
{"Compound": "CCC1CCCCC1 [ethylcyclohexane]", "surface tension liquid-gas, mN/m": 24.55}
{"Compound": "CCCCC1CCCCC1 [butylcyclohexane]", "surface tension liquid-gas, mN/m": 25.49}

* * *

Quick reference: viscosity of the listed items.
Conditions: 313.15 K; 100 kPa; Liquid; Concentric cylinders viscometry

{"Test Smiles": "CC1CCCCC1", "Unit Of Measure": "mPa·s", "viscosity": 0.58}
{"Test Smiles": "CCCCC1CCCCC1", "Unit Of Measure": "mPa·s", "viscosity": 0.961}
{"Test Smiles": "CC(C)CC(C)(C)C", "Unit Of Measure": "mPa·s", "viscosity": 0.43}
{"Test Smiles": "CCC1CCCCC1", "Unit Of Measure": "mPa·s", "viscosity": 0.663}

* * *

Quick reference: refractive index of the listed items.
Experiment: refractive index (Na D-line) (dimensionless)
Settings: 318.15 K; 100 kPa; Liquid

{"Test Smiles": "CC(C)CC(C)(C)C", "refractive index": 1.3785}
{"Test Smiles": "CC1CCCCC1", "refractive index": 1.4102}
{"Test Smiles": "CCCCC1CCCCC1", "refractive index": 1.429}
{"Test Smiles": "CCC1CCCCC1", "refractive index": 1.4204}

* * *

Test: refractive index (Na D-line) (dimensionless)
Conditions: 293.15 K; 100 kPa; Liquid
Numbers after ± are expanded uncertainties.
Quick reference: refractive index of the listed items.

{"Test Smiles": "CCCCC1CCCCC1", "refractive index": "1.4403 ± 0.0015"}
{"Test Smiles": "CC(C)CC(C)(C)C", "refractive index": "1.3921 ± 0.0015"}
{"Test Smiles": "CCC1CCCCC1", "refractive index": "1.4337 ± 0.0015"}
{"Test Smiles": "CC1CCCCC1", "refractive index": "1.4232 ± 0.0015"}

* * *

Experiment: refractive index (Na D-line) (dimensionless)
Details: 298.15 K; 100 kPa; Liquid
Quick reference: refractive index of the listed items.

{"Test Smiles": "CC1CCCCC1", "refractive index": 1.4199}
{"Test Smiles": "CCCCC1CCCCC1", "refractive index": 1.4377}
{"Test Smiles": "CCC1CCCCC1", "refractive index": 1.4301}
{"Test Smiles": "CC(C)CC(C)(C)C", "refractive index": 1.3886}

* * *

Conditions: 343.15 K; 100 kPa; Liquid; Vibrating tube method
Quantity: mass density (kg/m3)

{"Test Smiles": "CCCCC1CCCCC1", "Unit Of Measure": "kg/m3", "Endpoint Value": 761.43}
{"Test Smiles": "CC(C)CC(C)(C)C", "Unit Of Measure": "kg/m3", "Endpoint Value": 649.44}
{"Test Smiles": "CC1CCCCC1", "Unit Of Measure": "kg/m3", "Endpoint Value": 725.31}
{"Test Smiles": "CCC1CCCCC1", "Unit Of Measure": "kg/m3", "Endpoint Value": 747.03}

* * *

Quick reference: viscosity of the listed items.
Conditions: 298.15 K; 100 kPa; Liquid; Concentric cylinders viscometry

{"Test Smiles": "CC(C)CC(C)(C)C", "viscosity, mPa·s": 0.493}
{"Test Smiles": "CCC1CCCCC1", "viscosity, mPa·s": 0.793}
{"Test Smiles": "CCCCC1CCCCC1", "viscosity, mPa·s": 1.199}
{"Test Smiles": "CC1CCCCC1", "viscosity, mPa·s": 0.692}
